target or system: GABARAP, O95166
Sequence (O95166 whole entry, the tested form may be a part): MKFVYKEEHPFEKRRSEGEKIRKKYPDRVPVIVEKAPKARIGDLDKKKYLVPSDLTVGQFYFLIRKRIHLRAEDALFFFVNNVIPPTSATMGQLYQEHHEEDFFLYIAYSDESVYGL
protocol details: median log2 fold change of GCK-ALFA target abundance (FLAG IP / Myc IP barcode read proportion) (log2 ratio); each designed protein is fused to an ALFA-tag nanobody in HEK293 cells to bring the named protein to FLAG-tagged glucokinase (GCK); Myc marks an untargeted standard; higher = target protein stabilised (more abundant)
run parameters: target protein: 3xFLAG-MCP-GCK-ALFA reporter; HEK293 landing pad (RPLP)
Over roughly 4,500 sequences, “median log2 fold change of GCK-ALFA target abundance (FLAG IP / Myc IP barcode read proportion)” has its median near 0.078; the lowest 2% begin near -0.6. The sample as a whole holds a higher share of the lowest values than the screen did.
Response key: 1.0 means median log2 fold change >= 0.04; 0.0 means median log2 fold change < 0.04.

| binder | class label |
| --- | --- |
| GBRAP_160_3995 (protein) SEKKKKLLEKIKEILEETYELMKGESPEERLAIARVAAGDILLELFESELVSDETEEKIDEVLDEFVATVEANPDMSDEELKELLEETLEKIEKIIEENS | 0.0 |
| GBRAP_83_6970 (protein) MEKVDVVTTPDHVEEAAEAARDLAEEEGYEVTVILVGSPEEVLKSAEIVAEKLKDIKNVSIRAAVRGVRKEEAEKTKKKLEEIGKKYGLKVEFDAELIEE | 1.0 |
| GBRAP_125_3136 (protein) KRAALLALAEALARAMGFSEEEIAEIRRLAEAHDPAQTIVAIFLAAGAEEAAELAAEVLDKLSEEEIAALRALAEAARDLPLEEAVARLLAALKEAKAKL | 0.0 |
| GBRAP_14_3807 (protein) MEEKKKAITDNTDELKEIVTEILKDAPQEVRDAVLAAIEDFRKTVIENNLNPDEIAELGDELVKKVEEITKDLPADVRARVLAAVRVHTGEIILEVEELE | 1.0 |
| GBRAP_52_5974 (protein) MEEEMRKLAKEIVALILAGDEAGARALLEEIAATKTEEEITLLFKELAKLAKTATPEERDAIVEAALLAEDIALAAGFDEAVMDSNLADVVKAAVDAEKA | 0.0 |
| GBRAP_128_3422 (protein) SRAAAVARARALLEAMKTADDATAAALADELAALFASADLETAEAIAEVIRAEIPKLTAKQLDILADAFRAALPKLTPEKANIAADVIVDLLNEREELEE | 0.0 |
| GBRAP_117_2578 (protein) MEEREEVKRRLRETVREAGKRLEESKSLSPEERRKVEEEVRERIAEAVREALEVLSREEVLDIVEEELLEFDAETYFKIMSFVEEAIEEIREEEEREREE | 1.0 |
| GBRAP_39_5638 (protein) SREEEAEETFDYLEALGAKLLSERGISLDELLEEEYKYAREAFKDDPELLAAIDELYELALKGDDTDKLAAAGAFSLVREGKSKEEVLEAVELLIYYLKS | 1.0 |
